target: OmpA-like peptidoglycan-binding domain of R. rubrum PapS (Rhodospirillum rubrum); construct: isolated C-terminal OmpA-like domain, residues 156-273; His6-SUMO tag cut by Ulp1; E. coli Rosetta(DE3)pLysS; RED-NHS labelled; experiment: microscale thermophoresis
Sequence (Q2RP23 entry or part of it): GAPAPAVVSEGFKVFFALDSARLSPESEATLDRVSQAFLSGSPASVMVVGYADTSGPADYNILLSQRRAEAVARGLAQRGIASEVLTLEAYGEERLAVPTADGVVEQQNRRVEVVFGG
Endpoint Name: Kd (µM)

           structure_smiles_string  endpoint_name  observed_measurement
0  N[C@H](CCC[C@H](N)C(=O)O)C(=O)O             Kd                  2500

----------
target: A. baumannii OmpA (OmpA-like peptidoglycan-binding domain) (Acinetobacter baumannii); construct: gene omp38; isolated periplasmic OmpA-like domain, residues 221-339; His6-SUMO tag cut by Ulp1; E. coli Rosetta(DE3)pLysS; RED-NHS labelled; assay: microscale thermophoresis
Sequence (Q6RYW5 221-339): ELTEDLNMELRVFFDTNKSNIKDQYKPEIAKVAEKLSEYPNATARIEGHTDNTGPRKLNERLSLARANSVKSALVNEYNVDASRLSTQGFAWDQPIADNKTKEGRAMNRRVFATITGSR
pKd: −log10 of the molar value.
Endpoint Name: pKd

           structure_smiles_string  observed_measurement
0  N[C@H](CCC[C@H](N)C(=O)O)C(=O)O                  5.05
